Attribute: TGI
- Test system: CCRF-CEM leukemia
- Measurement Description: NCI tumour cell line growth inhibition, 48 h
Where a SMILES comes first, the peptide text is derived from it. [ ]: non-standard residue; d: D form. β3hI = CC[CH](C)[CH](N)CC(=O)O

# Compound, TGI
data = [
    ("CCC(C)C(CC(=O)N1CCCC1C(=O)NC(C(=O)NC(C(=O)NCC(=O)NC(CC(N)=O)C(=O)NC(C(=O)NC(C(=O)NC(CCCCN)C(N)=O)C(C)CC)C(C)CC)C(C)C)C(C)CC)NC(=O)C(N)C(C)CC (stereo not drawn) (H-I[β3hI]PIVGNIIK-NH2; configuration not given here)", "> 50 µM"),
]

Field TGI (entry CC(C)(C)C(=O)C1CC(=O)c2ccccc2C1=O (stereo not given) ) reads > 100 µM

Field TGI (entry "CN(C)c1nc(-c2ccccc2)c(C(=O)c2c[nH]c3ccccc23)s1" ) reads > 60.5 µM

Field TGI (entry "c1ccc2c(c1)Nc1nc3nonc3nc1N2" ) reads > 100 µM

Field TGI (entry CC(CO)C1=CC(C#CCOCc2ccccc2)N(C(=O)Oc2ccccc2)c2ccccc21 (stereo not given) ) reads > 100 µM

###

- Tested on: COLO 205 colon
- Measurement Description: NCI tumour cell line growth inhibition, 48 h
Where a SMILES comes first, the peptide text is derived from it. [ ]: non-standard residue; d: D form. The star is where a group is joined. Octanoyl = CCCCCCCC(=O)*; Aib = CC(C)(N)C(=O)O; tBu = CC(C)(C)*
Attribute: TGI
Numbers only; they are read as µM.

# Compound, Readout Unit, TGI
data = [
    ("COC1=CC(c2ccc[nH]2)=N/C1=C\\c1[nH]c(C)c(C(=O)CCCCC(=O)Nc2ccccc2)c1C", "µM", 3.8),
    ("Cc1cc(O)cc2c1O[C@@]1(C)CCC3[C@@]4(C)CC[C@H](O)C(C)(C)C4CC[C@@]3(C)[C@H]1C2 (stereo not given in full)", "µM", 33.4),
    ("COC(=O)CCC/C=C\\C[C@H]1C=CC(=O)/C1=C/C[C@@H](O)C/C=C\\CC(F)(F)F", "µM", 4.58),
    ("CCCCCCCC(=O)NC(C)(C)C(=O)NC(COC(C)(C)C)C(=O)NC(CC(C)C)C(=O)NC(C)(C)C(=O)NC(COC(C)(C)C)C(=O)NC(COC(C)(C)C)C(=O)NC(CC(C)C)C(=O)NC(C)(C)C(=O)NC(COC(C)(C)C)C(=O)NC(C(=O)NC(CC(C)C)C(=O)OC)C(C)CC (stereo not given) (Octanoyl-[Aib]S(tBu)L[Aib]S(tBu)S(tBu)L[Aib]S(tBu)IL-OMe; configuration not given here)", "µM", 15.8),
]

Field TGI (entry "CC#C[I+]c1ccccc1" ) reads 26

Field TGI (entry "CCn1cnc2c(Nc3cccc(Cl)c3)nc(N[C@@H]3CCCC[C@@H]3N)nc21" ) reads 2.6

###

Attribute: TGI
- Tested on: M14 melanoma
- Measurement Description: NCI tumour cell line growth inhibition, 48 h

# Molecule, TGI
measured = [
    ("CN(CCCCN(C)CCc1ccc(Cl)c(Cl)c1)CCCCN1CCCC1", "2.16 µM"),
]

Field TGI (entry "CS(=O)(=O)Nc1ccc(Nc2c3ccccc3nc3ccccc23)cc1" ) reads 17.5 µM

Field TGI (entry N#Cc1cc([N+](=O)[O-])ccc1NC(=O)C(=O)C(C(=O)/C=C/c1ccccc1)C1OC(=O)c2ccccc21 (stereo unspecified) ) reads > 100 µM

Field TGI (entry "Cc1ccccc1CN1CC=c2ccccc2=N1" ) reads > 100 µM

Field TGI (entry "c1ccc(CN(Cn2cccn2)Cn2cccn2)nc1" ) reads > 100 µM

Field TGI (entry "CC(=O)Oc1ccccc1C(=O)O" ) reads > 100 µM

Field TGI (entry "C[C@H]1[C@H](C)CC[C@]2(C(=O)O)CC[C@]3(C)C(=CC[C@@H]4[C@@]5(C)C/C(=C/c6ccco6)C(=O)C(C)(C)[C@@H]5CC[C@]43C)[C@H]12" ) reads 21.2 µM

Field TGI (entry "COc1ccc(/C=C/C(=O)N[C@@H]2C(=O)N3[C@@H]2SC(C)(C)[C@@H]3C(=O)O)cc1" ) reads > 100 µM

Field TGI (entry "Cc1nc(NC(=O)CCCN2C(=O)c3cccc4cccc(c34)C2=O)sc1C(=O)Nc1cc(C(=O)NCCCN(C)C)n(C)c1" ) reads > 100 µM

###

- System: HCC-2998 colon
- Measurement Description: NCI tumour cell line growth inhibition, 48 h
Attribute: TGI

Completed entries (count: 4):
# Compound, Value Reported
data = [
    ("CC(C)[C@](O)(C(=O)OCC1CC[N+]2([O-])CC[C@@H](O)C12)[C@H](C)O (stereo partly drawn)", "> 375 µM"),
    ("CC(=O)OCC1OC(n2c(N)c(C#N)c(-c3ccc(C)cc3)c(C#N)c2=S)C(OC(C)=O)C(OC(C)=O)C1OC(C)=O (stereo not drawn)", "34 µM"),
    ("CCCCCCCC/C=C\\CCCCCCCC(=O)NCCN(CCN)C(=O)CCCCCCC/C=C\\CCCCCCCC", "> 100 µM"),
    ("CC(C)=CC(=O)Cc1nc2cc(C)c(C)cc2[nH]c1=O", "> 100 µM"),
]

Field TGI (entry "C[C@@H]1C=C2C(=O)O[C@@H]3CC[C@H](C1)[C@]23O" ) reads 32.9 µM

Field TGI (entry "C[C@H]1[C@H](C)CC[C@]2(C(=O)O)CC[C@]3(C)C(=CC[C@@H]4[C@@]5(C)C/C(=C/c6ccco6)C(=O)C(C)(C)[C@@H]5CC[C@]43C)[C@H]12" ) reads 15.3 µM

Field TGI (entry CN(C)CC1(C)CC/C(=C\c2ccccc2)C1=O (stereo not drawn) ) reads > 100 µM

Field TGI (entry "COc1cc(-n2cc(-c3ccc(Cl)cc3)[nH]c2=O)cc(OC)c1OC" ) reads > 100 µM

###

- Test system: NCI-H226 lung
- Measurement Description: NCI tumour cell line growth inhibition, 48 h
Outcome Measure: TGI (µM)
Numbers only; they are read as µM.

Completed entries (count: 4):
# Compound, Outcome Measure, Value Reported
measured = [
    ("O=[N+]([O-])O.[Ga]", "TGI", 9510),
    ("CC1=C(C(=O)NCc2ccccc2)C(c2ccccc2[N+](=O)[O-])C(C(=O)NCc2ccccc2)=C(C)N1", "TGI", 30.4),
    ("O=C(c1cccnc1)N1N=C(c2ccc(Cl)cc2)CC1(O)c1cc(F)c(Cl)cc1Cl (stereo not given)", "TGI", 43.3),
    ("CCOC(=O)c1sc(Nc2ccc(Cl)cc2)nc1C", "TGI", 4.46),
]

Below: the item to evaluate.
Field TGI (entry "CC(C)NC(=O)OCc1c(COC(=O)NC(C)C)n(C)c2c1ccc1ccccc12" ) reads 5.43

###

- Test system: NCI-H226 lung
- Measurement Description: NCI tumour cell line growth inhibition, 48 h; in the data active means GI50 below about 0.43 µM; inactive means the rest
Hi there, use one of these labels in your reply, thanks! Yes for active, No for inactive

// below: answered compounds
# Compound, Group
data = [
    ("C[C@@H]1C=C2C(=O)O[C@@H]3CC[C@H](C1)[C@]23O", "No"),
    ("CCC(=C/[C@H](C)C/C=C/C(C)=C/[C@@H](C)C(=O)[C@@H](C)[C@H](O)[C@@H](C)CC)/C=C/[C@H]1OC(=O)C=C[C@H]1C", "Yes"),
    ("CCOC(=O)c1sc(=S)c2c(C(=O)OCC)c(C(=O)OCC)sc2c1C(=O)OCC", "No"),
    ("COC(=O)CCC/C=C\\C[C@H]1C=CC(=O)/C1=C/C[C@@H](O)C/C=C\\CC(F)(F)F", "No"),
    ("COc1ccc(C2=NN(C(C)=O)C(c3cn(-c4ccccc4)nc3-c3ccc(Cl)cc3)C2)cc1 (stereo unspecified)", "No"),
]

Each compound tested received a call. Report the one for "COc1ccccc1CNCCCN1C(=O)c2ccc3c4c(ccc(c24)C1=O)C(=O)N(CCCNCCCN)C3=O" .
No

Each compound tested received a call. Report the one for "CCn1cnc2c(Nc3cccc(Cl)c3)nc(N[C@@H]3CCCC[C@@H]3N)nc21" .
No

###

Attribute: GI50
- Tested on: CCRF-CEM leukemia
- Measurement Description: NCI tumour cell line growth inhibition, 48 h

# Smiles Str, Assay System, GI50
records = [
    ("COc1ccc([N+](=O)[O-])c(S(=O)(=O)c2ccc(Cl)cc2)n1", "CCRF-CEM leukemia", "2.93 µM"),
    ("Cn1cc(C2=C(c3cn(CCN)c4ccccc34)C(=O)NC2=O)c2ccccc21", "CCRF-CEM leukemia", "6.05 µM"),
    ("CCn1cnc2c(Nc3cccc(Cl)c3)nc(N[C@@H]3CCCC[C@@H]3N)nc21", "CCRF-CEM leukemia", "2.88 µM"),
    ("COc1cc(/C=C2\\COc3ccc(O)c(O)c3C2=O)cc(OC)c1", "CCRF-CEM leukemia", "0.505 µM"),
]

Field GI50 (entry "COc1cc(C(=O)c2cc3c(cc2C)OCO3)cc(OC)c1OC" ) reads 0.0434 µM

The measurements presented in this section are drawn from PubChem BioAssay (NCI).
